Every entry's value here was drawn from patent US8592408B2.

Experiment: Plasma protein binding (PPB), rapid equilibrium dialysis
Type: in vitro ADME
Conditions: male, Sprague Dawley, rat, pH 7.4, rat plasma, RED 6 h 37° C., mean of n = 3, read-out: Rat PPB (%) (converted)
testReadout: fraction unbound at 6 h, 1 μg/mL
One number for each entry.

Prompt line: Quick one: fraction unbound at 6 h, 1 μg/mL for `NC1=N[C@@]2(c3cc(NC(=O)c4cnc(CF)cn4)ccc3F)CO[C@H](C(F)(F)F)[C@H]2CS1` ?
Response line: 0.104

* * *

Experiment: Rat in vivo CNS penetration (plasma, brain and CSF concentrations)
Settings: male, Sprague Dawley, brain (unbound) / plasma (unbound), po; rat, 10 mg/kg p.o., 2 h; read-out: Bru:Plu
testReadout: Kp at 2 h
Give bare numbers.

Prompt line: Quick one: Kp at 2 h for `NC1=N[C@@]2(c3cc(NC(=O)c4cnc(CF)cn4)ccc3F)CO[C@H](C(F)(F)F)[C@H]2CS1` ?
Response line: 0.7

* * *

Biological target: P-glycoprotein (MDR1) (Homo sapiens, UniProt P08183)
Construct: assay run at Cyprotex Discovery Ltd; host or cells: MDCK (canine kidney epithelial) cells stably transfected with MDR1
Sequence (P08183 whole entry): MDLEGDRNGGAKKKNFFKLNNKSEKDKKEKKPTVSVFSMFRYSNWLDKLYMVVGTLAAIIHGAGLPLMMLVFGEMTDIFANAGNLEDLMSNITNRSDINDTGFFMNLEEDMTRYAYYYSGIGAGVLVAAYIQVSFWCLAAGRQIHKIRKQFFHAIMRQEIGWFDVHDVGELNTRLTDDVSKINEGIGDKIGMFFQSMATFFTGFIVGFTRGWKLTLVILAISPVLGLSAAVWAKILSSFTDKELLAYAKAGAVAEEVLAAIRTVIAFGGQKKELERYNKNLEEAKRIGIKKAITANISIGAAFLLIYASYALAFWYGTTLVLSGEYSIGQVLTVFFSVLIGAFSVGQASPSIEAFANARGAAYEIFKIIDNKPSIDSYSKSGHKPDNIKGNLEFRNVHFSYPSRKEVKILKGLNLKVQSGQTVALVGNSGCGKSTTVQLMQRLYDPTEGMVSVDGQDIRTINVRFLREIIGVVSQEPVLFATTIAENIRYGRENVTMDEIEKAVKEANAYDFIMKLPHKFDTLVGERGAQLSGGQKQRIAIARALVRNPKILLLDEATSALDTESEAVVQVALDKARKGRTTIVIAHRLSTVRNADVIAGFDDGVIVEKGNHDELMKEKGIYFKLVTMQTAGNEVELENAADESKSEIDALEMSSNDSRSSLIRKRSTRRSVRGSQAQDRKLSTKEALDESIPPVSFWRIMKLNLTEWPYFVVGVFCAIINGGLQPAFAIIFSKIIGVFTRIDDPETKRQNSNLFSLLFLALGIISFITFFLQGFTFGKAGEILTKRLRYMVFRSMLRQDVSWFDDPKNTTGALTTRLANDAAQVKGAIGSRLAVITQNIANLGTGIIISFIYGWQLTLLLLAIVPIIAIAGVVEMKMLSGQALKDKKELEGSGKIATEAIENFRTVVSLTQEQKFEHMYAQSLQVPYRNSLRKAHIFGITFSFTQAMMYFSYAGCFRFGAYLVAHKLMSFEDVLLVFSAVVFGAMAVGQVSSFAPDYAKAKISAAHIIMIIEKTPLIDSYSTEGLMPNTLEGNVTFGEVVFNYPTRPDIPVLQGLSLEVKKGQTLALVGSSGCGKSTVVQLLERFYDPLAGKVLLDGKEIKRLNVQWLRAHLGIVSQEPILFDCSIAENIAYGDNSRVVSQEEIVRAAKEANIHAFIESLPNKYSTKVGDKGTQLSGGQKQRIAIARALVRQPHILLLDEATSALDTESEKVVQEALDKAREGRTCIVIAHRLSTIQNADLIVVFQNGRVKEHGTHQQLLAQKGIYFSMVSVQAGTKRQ
Assay: MDR1-MDCK permeability (bi-directional) Pgp efflux assay
Assay type: in vitro ADME
Conditions: dog, MDCK-MDR1, pH 7.4; read-out: Pgp ER
testReadout: efflux ratio at 60 min, 10 μM
Give bare numbers.

Prompt line: Quick one: efflux ratio at 60 min, 10 μM for `COCc1cnc(C(=O)Nc2ccc(F)c([C@]34CO[C@H](C(F)(F)F)[C@H]3CSC(N)=N4)c2)cn1` ?
Response line: 1.7

* * *

Assay: Rat in vivo CNS penetration (plasma, brain and CSF concentrations)
Settings: male, Sprague Dawley, brain (total) / plasma (total), po; rat, 10 mg/kg p.o., 6 h; read-out: Brtot:Pltot
Protocol: Rat In Vivo CNS Penetration Male Sprague Dawley rats were acquired from Charles River UK Ltd. (Margate, UK) and housed according to UK Home Office guidelines. Drugs were made up to the appropriate concentrations in 0.5% methyl cellulose. Animals were dosed orally (2 mL/kg) by gavage at the doses outlined in Tables 2 to 4 below. […]
testReadout: Kp at 6 h
Answers are plain numbers.

Prompt line: Quick one: Kp at 6 h for NC1=N[C@@]2(c3cc(NC(=O)c4cnc(CF)cn4)ccc3F)CO[C@H](C(F)(F)F)[C@H]2CS1 [Example 8] ?
Response line: 3.7

* * *

Assay: Rat in vivo CNS penetration (plasma, brain and CSF concentrations)
Conditions: male, Sprague Dawley, brain (unbound) / plasma (unbound), po; rat, 10 mg/kg p.o., 4 h; read-out: Bru:Plu
testReadout: Kp at 4 h
Answers are plain numbers.

Prompt line: Quick one: Kp at 4 h for NC1=N[C@@]2(c3cc(NC(=O)c4cnc(CF)cn4)ccc3F)CO[C@H](C(F)(F)F)[C@H]2CS1 [Example 8] ?
Response line: 0.8
